test system: biomarker (antibody) in serum samples from patients with symptoms of tuberculosis; assay type: binding, human; conditions: serum sample 17 TB−
Marks after values point to notes of the source that are not given here.
Would you kindly list ELISA absorbance at 492 nm for each of these compounds?

compound	ELISA absorbance at 492 nm
CCCCCCCCCCCCCCCCCCCCCCCC[C@@H](C(=O)OC[C@H]1O[C@H](OC)[C@@H](O)[C@@H]1O)[C@H](O)CCCCCCCCCCCCCCCCC[C@@H]1C[C@@H]1CCCCCCCCCCCCCCCC[C@@H](OC)[C@@H](C)CCCCCCCCCCCCCCCCCC [Antigen B]	0.87*
CCCCCCCCCCCCCCCCCCCCCC[C@@H](C(=O)OC[C@H]1O[C@H](OC)[C@@H](O)[C@@H]1O)[C@H](O)CCCCCCCCCCCCCCCCC[C@H]1C[C@H]1CCCCCCCCCCCCCCCC[C@@H](OC)[C@@H](C)CCCCCCCCCCCCCCCCCC [Antigen E]	0.47*
CCCCCCCCCCCCCCCCCCCCCC[C@@H](C(=O)OC[C@H]1O[C@H](OC)[C@@H](O)[C@@H]1O)[C@H](O)CCCCCCCCCCCCCCC[C@@H]1C[C@@H]1CCCCCCCCCCCCCCCCCCC(=O)C(C)CCCCCCCCCCCCCCCCCC (some centres unmarked) [Antigen C]	0.57*
CCCCCCCCCCCCCCCCCCCCCCCC[C@@H](C(=O)OC[C@H]1O[C@H](OC)[C@@H](O)[C@@H]1O)[C@H](O)CCCCCCCCCCC[C@H]1CC1CCCCCCCCCCCCCC[C@H]1C[C@H]1CCCCCCCCCCCCCCCCCCCC (some centres unmarked) [Antigen F]	0.81*

For this compound ( CCCCCCCCCCCCCCCCCCCCCC[C@@H](C(=O)OC[C@H]1O[C@H](OC)[C@@H](O)[C@@H]1O)[C@H](O)CCCCCCCCCCCCCCCCC[C@@H]1C[C@@H]1CCCCCCCCCCCCCCCC[C@@H](OC)[C@@H](C)CCCCCCCCCCCCCCCCCC [Antigen A] ), measured ELISA absorbance at 492 nm is 0.52*

---

Would you kindly list ELISA absorbance at 492 nm for each of these molecules?
test system: biomarker (antibody) in serum samples from patients with symptoms of tuberculosis; format: binding, human; details: serum sample 55 TB−
Give bare numbers.

molecule	ELISA absorbance at 492 nm
CCCCCCCCCCCCCCCCCCCCCC[C@@H](C(=O)OC[C@H]1O[C@H](OC)[C@@H](O)[C@@H]1O)[C@H](O)CCCCCCCCCCCCCCCCC[C@H]1C[C@H]1CCCCCCCCCCCCCCCC[C@@H](OC)[C@@H](C)CCCCCCCCCCCCCCCCCC [Antigen E]	0.22

We next turn to a different molecule, shown below.
For this molecule ( CCCCCCCCCCCCCCCCCCCCCCCC[C@@H](C(=O)OC[C@H]1O[C@H](OC)[C@@H](O)[C@@H]1O)[C@H](O)CCCCCCCCCCC[C@H]1CC1CCCCCCCCCCCCCC[C@H]1C[C@H]1CCCCCCCCCCCCCCCCCCCC (stereo partly drawn) [Antigen F] ), measured ELISA absorbance at 492 nm is 0.27

---

Would you kindly list ELISA absorbance at 492 nm for each of these compounds?
test system: biomarker (antibody) in serum samples from patients with symptoms of tuberculosis; format: binding, human; details: serum sample 18 TB−
One number for each entry.

Record excerpt, results attached:
compound	ELISA absorbance at 492 nm
CCCCCCCCCCCCCCCCCCCCCC[C@@H](C(=O)OC[C@H]1O[C@H](OC)[C@@H](O)[C@@H]1O)[C@H](O)CCCCCCCCCCCCCCCCC[C@H]1C[C@H]1CCCCCCCCCCCCCCCC[C@@H](OC)[C@@H](C)CCCCCCCCCCCCCCCCCC [Antigen E]	0.25
CCCCCCCCCCCCCCCCCCCCCCCC[C@@H](C(=O)OC[C@H]1O[C@H](OC)[C@@H](O)[C@@H]1O)[C@H](O)CCCCCCCCCCCCCCCCC[C@@H]1C[C@@H]1CCCCCCCCCCCCCCCC[C@@H](OC)[C@@H](C)CCCCCCCCCCCCCCCCCC [Antigen B]	0.44

We next turn to a different compound, shown below.
For this compound ( CCCCCCCCCCCCCCCCCCCCCCCC[C@@H](C(=O)OC[C@H]1O[C@H](OC)[C@@H](O)[C@@H]1O)[C@H](O)CCCCCCCCCCC[C@H]1CC1CCCCCCCCCCCCCC[C@H]1C[C@H]1CCCCCCCCCCCCCCCCCCCC (some centres unmarked) [Antigen F] ), measured ELISA absorbance at 492 nm is 0.68

---

system: biomarker (antibody) in serum samples from patients with symptoms of tuberculosis; format: binding, human; conditions: serum sample 8 TB+
Marks after values point to notes of the source that are not given here.
measurement.label: ELISA absorbance at 492 nm

molecule	ELISA absorbance at 492 nm
CCCCCCCCCCCCCCCCCCCCCCCC[C@@H](C(=O)OC[C@H]1O[C@H](OC)[C@@H](O)[C@@H]1O)[C@H](O)CCCCCCCCCCCCCCCCC[C@@H]1C[C@@H]1CCCCCCCCCCCCCCCC[C@@H](OC)[C@@H](C)CCCCCCCCCCCCCCCCCC [Antigen B]	0.97*

I would be grateful if you could provide ELISA absorbance at 492 nm for each of the following entries.
1. CCCCCCCCCCCCCCCCCCCCCC[C@@H](C(=O)OC[C@H]1O[C@H](OC)[C@@H](O)[C@@H]1O)[C@H](O)CCCCCCCCCCCCCCCCC[C@@H]1C[C@@H]1CCCCCCCCCCCCCCCC[C@@H](OC)[C@@H](C)CCCCCCCCCCCCCCCCCC [Antigen A]
2. CCCCCCCCCCCCCCCCCCCCCC[C@@H](C(=O)OC[C@H]1O[C@H](OC)[C@@H](O)[C@@H]1O)[C@H](O)CCCCCCCCCCCCCCCCC[C@H]1C[C@H]1CCCCCCCCCCCCCCCC[C@@H](OC)[C@@H](C)CCCCCCCCCCCCCCCCCC [Antigen E]
3. CCCCCCCCCCCCCCCCCCCCCC[C@@H](C(=O)OC[C@H]1O[C@H](OC)[C@@H](O)[C@@H]1O)[C@H](O)CCCCCCCCCCCCCCC[C@@H]1C[C@@H]1CCCCCCCCCCCCCCCCCCC(=O)C(C)CCCCCCCCCCCCCCCCCC (some centres unmarked) [Antigen C]
4. CCCCCCCCCCCCCCCCCCCCCCCC[C@@H](C(=O)OC[C@H]1O[C@H](OC)[C@@H](O)[C@@H]1O)[C@H](O)CCCCCCCCCCC[C@H]1CC1CCCCCCCCCCCCCC[C@H]1C[C@H]1CCCCCCCCCCCCCCCCCCCC (some centres unmarked) [Antigen F]

1: 0.47*; 2: 0.69*; 3: 0.46*; 4: 1.67*

---

system: biomarker (antibody) in serum samples from patients with symptoms of tuberculosis; format: binding, human; conditions: serum sample 14 TB−
Marks after values point to notes of the source that are not given here.
measurement.label: ELISA absorbance at 492 nm

Record excerpt, results attached:
compound	measurement.label	result
CCCCCCCCCCCCCCCCCCCCCCCC[C@@H](C(=O)OC[C@H]1O[C@H](OC)[C@@H](O)[C@@H]1O)[C@H](O)CCCCCCCCCCCCCCCCC[C@@H]1C[C@@H]1CCCCCCCCCCCCCCCC[C@@H](OC)[C@@H](C)CCCCCCCCCCCCCCCCCC [Antigen B]	ELISA absorbance at 492 nm	0.91*
CCCCCCCCCCCCCCCCCCCCCCCC[C@@H](C(=O)OC[C@H]1O[C@H](OC)[C@@H](O)[C@@H]1O)[C@H](O)CCCCCCCCCCC[C@H]1CC1CCCCCCCCCCCCCC[C@H]1C[C@H]1CCCCCCCCCCCCCCCCCCCC (stereo partly drawn) [Antigen F]	ELISA absorbance at 492 nm	1.30*

We next turn to a different compound, shown below.
Observed ELISA absorbance at 492 nm on biomarker (antibody) in serum samples from patients with symptoms of tuberculosis, entry CCCCCCCCCCCCCCCCCCCCCC[C@@H](C(=O)OC[C@H]1O[C@H](OC)[C@@H](O)[C@@H]1O)[C@H](O)CCCCCCCCCCCCCCCCC[C@@H]1C[C@@H]1CCCCCCCCCCCCCCCC[C@@H](OC)[C@@H](C)CCCCCCCCCCCCCCCCCC [Antigen A] , equals 0.49*

---

tested on: biomarker (antibody) in serum samples from patients with symptoms of tuberculosis; type: binding, human; details: serum sample 32 TB−
Marks after values point to notes of the source that are not given here.
measurement.label: ELISA absorbance at 492 nm

molecule	ELISA absorbance at 492 nm
CCCCCCCCCCCCCCCCCCCCCCCC[C@@H](C(=O)OC[C@H]1O[C@H](OC)[C@@H](O)[C@@H]1O)[C@H](O)CCCCCCCCCCC[C@H]1CC1CCCCCCCCCCCCCC[C@H]1C[C@H]1CCCCCCCCCCCCCCCCCCCC (some centres unmarked) [Antigen F]	0.91*

For this molecule ( CCCCCCCCCCCCCCCCCCCCCC[C@@H](C(=O)OC[C@H]1O[C@H](OC)[C@@H](O)[C@@H]1O)[C@H](O)CCCCCCCCCCCCCCC[C@@H]1C[C@@H]1CCCCCCCCCCCCCCCCCCC(=O)C(C)CCCCCCCCCCCCCCCCCC (some centres unmarked) [Antigen C] ), measured ELISA absorbance at 492 nm is 1.01*

FYI, the data here is from patent US11162944B2.
